- measured on: Cdk2(S181C) (C177A) (Homo sapiens, UniProt P24941, C177A/S181C)
- Construct: poly-histidine; made in house; host or cells: E. coli
- test: Kinetic thiol consumption assay with Cdk2 mutant S181C
- Assay type: binding
- assay context: Protein: Cdk2; cysteine position S181C; additional mutation C177A; in h^-1
measured parameter: Rate constant with Cdk2 S181C

Solved cases below.
{"columns": ["compound", "measured on", "Rate constant with Cdk2 S181C"],
 "data": [
  ["O=C(c1ccccc1)[C@@H]1O[C@H]1c1ccccc1", "Cdk2(S181C) (C177A) (Homo sapiens, UniProt P24941, C177A/S181C)", 0.01045],
  ["C=CC(=O)NC1c2ccccc2Oc2ccccc21", "Cdk2(S181C) (C177A) (Homo sapiens, UniProt P24941, C177A/S181C)", 0.006213],
  ["C=CC(=O)Nc1cccc(Nc2ncnc3cc(OC)c(OC)cc23)c1", "Cdk2(S181C) (C177A) (Homo sapiens, UniProt P24941, C177A/S181C)", 0.01548],
  ["C=CC(=O)N1CCCN2C(=O)CCC12c1ccc(OC)cc1 (centres unmarked)", "Cdk2(S181C) (C177A) (Homo sapiens, UniProt P24941, C177A/S181C)", 0.02323]
]}

A. C=CC(=O)Nc1ccccc1-c1ccccc1
B. C=CC(=O)Nc1ccccc1N1CCOCC1
Exercise: Problem: Given the entries A and B , determine which has the lower reported Rate constant with Cdk2 S181C. // return label of chosen record
Solution: A
(A: 0.006108, B: 0.01251)

A. C=CC(=O)N1CC(OCCN(CC)CC)C1
B. C=CC(=O)N1CC(Cc2ccccc2)C1
Exercise: Hey, which is lower on measured Rate constant with Cdk2 S181C, A or B ? State your choice using its label.
Solution: A
(A: 0.008117, B: 0.04813)
